Molecular target: Estrogen receptor beta (Homo sapiens)
Assay: ERbeta ligand binders by competition, primary screen, cell-based, Cos7 ERbeta-GFP, flow cytometry (AID 1210);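 note: 0% = DMSO vehicle wells and 100% = complete loss of labeled estradiol signal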
Conditions: fluorescent estrogen binding, at 10 µM, stronger effect = higher value
value-type: inhibition (%)

compound	value-type	result-number
COc1ccc(C2(CN)CCCC2)cc1OC	inhibition	8
COc1ccc(Cn2c(N)c(C(=O)NCc3ccco3)c3nc4ccccc4nc32)cc1	inhibition	64
NC(=O)c1ccc(N=Nc2c(O)[nH]c(=O)[nH]c2=O)cc1	inhibition	11
O=C1C2CCN(CC2)C1Cc1ccc(O)cc1 (centres undefined)	inhibition	19

----------
Entries and their inhibition
Target: Estrogen receptor beta (Homo sapiens)
Experiment: ERbeta ligand binders by competition, primary screen, cell-based, Cos7 ERbeta-GFP, flow cytometry (AID 1210);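 note: 0% = DMSO vehicle wells and 100% = complete loss of labeled estradiol signal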
Conditions: fluorescent estrogen binding, ligand binding inhibition, at 0.1 µM, stronger effect = higher value
value-type: inhibition

compound	result
O=C(O)c1ccc2c(c1)C1C(Cl)C(Sc3ccccc3[N+](=O)[O-])CC1C(c1cccc([N+](=O)[O-])c1)N2 (stereo not given)	6%
COc1ccc(Cn2c(N)c(C(=O)NCc3ccco3)c3nc4ccccc4nc32)cc1	13%
NC(=O)c1ccc(N=Nc2c(O)[nH]c(=O)[nH]c2=O)cc1	17%
CC(=O)c1ccc2c(c1)C1C(Cl)C(Sc3ccccc3[N+](=O)[O-])CC1C(c1ccccc1)N2 (stereo not given)	22%
C[C@H]1CCC[C@@H](O)CCC/C=C/c2cc(O)cc(O)c2C(=O)O1	62%

----------
Target: Estrogen receptor beta (Homo sapiens) (UniProt Q92731)
Sequence (Q92731 whole entry, looked up): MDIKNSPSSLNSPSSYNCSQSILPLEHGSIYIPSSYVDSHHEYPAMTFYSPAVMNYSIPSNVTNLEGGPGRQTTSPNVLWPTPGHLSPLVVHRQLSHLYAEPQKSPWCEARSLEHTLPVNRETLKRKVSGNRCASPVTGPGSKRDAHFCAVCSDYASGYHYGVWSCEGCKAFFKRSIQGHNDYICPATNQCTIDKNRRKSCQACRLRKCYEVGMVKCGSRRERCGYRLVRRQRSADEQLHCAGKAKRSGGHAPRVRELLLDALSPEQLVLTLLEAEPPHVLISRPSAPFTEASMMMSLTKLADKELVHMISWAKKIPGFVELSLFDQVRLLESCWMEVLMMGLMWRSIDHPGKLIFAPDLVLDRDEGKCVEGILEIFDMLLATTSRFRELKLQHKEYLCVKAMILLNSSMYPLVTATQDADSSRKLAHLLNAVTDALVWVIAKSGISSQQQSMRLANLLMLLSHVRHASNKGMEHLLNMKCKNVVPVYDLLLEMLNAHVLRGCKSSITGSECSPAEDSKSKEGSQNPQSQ
Experiment: ERbeta ligand binders by competition, primary screen, cell-based, Cos7 ERbeta-GFP, flow cytometry (AID 1210);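 note: 0% = DMSO vehicle wells and 100% = complete loss of labeled estradiol signal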
Conditions: fluorescent estrogen binding, at 10 µM
Activity calls are given as the source filed them.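 Rule for the calls: active = blocks over 70% of labeled estradiol binding at 10 µM, or over a set limit at 100 nM; inactive = the rest.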
Outcomes: active, inactive

compound	answer-label
CCOc1ccccc1N1C(=O)NC(=O)C(CCc2ccncc2)(CCc2ccncc2)C1=O	inactive
C[C@H]1CCC[C@@H](O)CCC/C=C/c2cc(O)cc(O)c2C(=O)O1	active
CC(=O)c1ccc2c(c1)C1C(Cl)C(Sc3ccccc3[N+](=O)[O-])CC1C(c1ccccc1)N2 (stereo not given)	inactive
COc1ccc(C2(CN)CCCC2)cc1	inactive
COc1cc2c(cc1OC)CC(C)(C)NC2	inactive
O=C(O)c1cccc2c1NC(C(=O)O)C1CC(Sc3ccccc3[N+](=O)[O-])C(Cl)C21 (stereo not given)	inactive
CC(=O)c1ccc2c(c1)C1C(Cl)C(Sc3ccccc3[N+](=O)[O-])CC1C(C(=O)O)N2 (stereo not given)	inactive
CC1(C)CC(CCNCc2ccc3c(c2)OCO3)(Cc2ccccc2)CCO1 (stereo not given)	inactive
N=c1c[n+](CCc2ccc(O)cc2)[n-]o1	inactive
Cc1ccc2c(c1Cl)NC(C(=O)O)C1CC(Sc3ccccc3[N+](=O)[O-])C(Cl)C21 (stereo not given)	inactive
